The following variants are listed with their measured protein stability index values.
B1: SLC35F2 (parent)
chain: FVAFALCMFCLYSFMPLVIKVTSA

Variants of: B1
Experiment: protein stability index of a GFP-peptide fusion (GPS, HEK-293T) (PSI 1-6); higher = more stable;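 further: lentivirally expressed fusions sorted by FACS into six bins by GFP to DsRed ratio, PSI derived from sequencing read proportions per bin multiplied by bin number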
Conditions: c terminus: a fixed tail appended
assay-metric: protein stability index

# mutant-id, assay-metric, observed-measurement
measured = [
    ("C7S", "protein stability index", 3.35),
    ("F14C", "protein stability index", 2.43),
    ("A24M", "protein stability index", 2.66),
    ("F9K", "protein stability index", 3.39),
    ("F9A", "protein stability index", 2.62),
    ("C10G", "protein stability index", 2.58),
    ("V18I", "protein stability index", 2.35),
    ("S23G", "protein stability index", 3.19),
]
